Exercise: state measured EC50 for each of the compounds provided.
Biological target: human CB2 receptor (hCB2) (Homo sapiens, UniProt P34972)
Sequence (P34972 whole entry): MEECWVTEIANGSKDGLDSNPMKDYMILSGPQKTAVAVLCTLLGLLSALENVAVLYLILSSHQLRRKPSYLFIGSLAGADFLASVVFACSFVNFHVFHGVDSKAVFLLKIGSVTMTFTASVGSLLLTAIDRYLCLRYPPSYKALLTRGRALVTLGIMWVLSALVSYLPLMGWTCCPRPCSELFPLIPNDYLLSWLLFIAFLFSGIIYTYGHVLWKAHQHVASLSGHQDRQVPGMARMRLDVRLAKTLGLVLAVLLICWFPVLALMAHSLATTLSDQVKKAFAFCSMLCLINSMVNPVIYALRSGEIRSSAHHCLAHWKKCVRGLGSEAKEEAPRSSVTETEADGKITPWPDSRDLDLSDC
Experiment: cAMP assay (LANCE TR-FRET) in CHO-K1 cells expressing hCB2
Conditions: CHO-K1 cells stably expressing hCB2; intracellular cAMP, NKH-477 prestimulated; average of at least three replicates
Procedure: The ability of compounds to act as agonists or inverse agonists at human CB2 and CB1 receptors (hCB2, hCB1, respectively) was determined by measuring changes in intracellular cAMP levels. […] Receptor mediated responses were determined by measuring changes in intracellular cAMP using LANCE cAMP detection kit (catalog #AD0264, PerkinElmer, Wellesley, Mass.) based on time-resolved fluorescence resonance energy transfer (TR-FRET). […]
Give bare numbers, in nM.

See these solved cases before continuing.
{"columns": ["compound", "measurement unit", "EC50"],
 "data": [
  ["CCCNC(=O)Nc1ccc2c(c1)C1C3CCC(C3)C1C(c1ccccc1)N2 (stereo not shown) [Compound (5d)]", "nM", 289],
  ["O=C(Nc1ccc2c(c1)C1C3CCC(C3)C1C(c1ccccc1)N2)C1CC1 (stereo not shown) [(19)]", "nM", 187],
  ["O=S(=O)(c1ccc2c(c1)C1C3CCC(C3)C1C(c1nccs1)N2)N1CCOCC1 (stereo not shown) [(36)]", "nM", 4120],
  ["O=S(=O)(c1ccc2c(c1)C1C3CCC(C3)C1C(c1ccccc1)N2)N1CCOCC1 (stereo not shown) [(34)]", "nM", 0.56]
]}

Please state, for each entry, its recorded EC50.
1. CCCNC(=S)Nc1ccc2c(c1)C1C3CCC(C3)C1C(c1ccccc1)N2 (stereo not shown) [(6)]
2. CCC1Nc2ccc(NC(=O)C3CC3)cc2C2C3CCC(C3)C12 (stereo not shown) [(21)]

Ans.
1. 99.8
2. 1200
